Provenance of the data: PubChem BioAssay

# Measured target: Protein kinase 7 (PK7), Plasmodium falciparum 3D7 (PF3D7_0213400)
# Procedure text: inhibition of Plasmodium PK7 catalytic activity – biochemical, TCAMS antimalarial set, Kinase-Glo luminescence (AID 1159587)
# Condition details: recombinant PfPK7, Kinase-Glo ATP depletion luminescence
Calls of active or inactive are those of the source. No rule for the calls is given here.
Readout label: outcome

Some solved cases for reference:
>  <Molecule>
CCCCCOc1ccc(CC(C)NCC(O)c2cccc(Cl)c2)cc1 (stereo not given)

>  <Measured target>
Protein kinase 7 (PK7), Plasmodium falciparum 3D7 (PF3D7_0213400)

>  <outcome>
inactive

$$$$
>  <Molecule>
Cc1cccc(C(=O)Nc2ccnc(N(C)C3CCN(Cc4cccc(O)c4)CC3)c2)c1

>  <Measured target>
Protein kinase 7 (PK7), Plasmodium falciparum 3D7 (PF3D7_0213400)

>  <outcome>
inactive

$$$$
>  <Molecule>
CS(=O)(=O)Nc1ccc2[nH]cc(C3CCN(CC4CCC(NC(=O)/C=C/c5ccccc5Cl)CC4)CC3)c2c1 (stereo not given)

>  <Measured target>
Protein kinase 7 (PK7), Plasmodium falciparum 3D7 (PF3D7_0213400)

>  <outcome>
inactive

$$$$
>  <Molecule>
CC[C@H]1CN2CC[C@@H]1C[C@H]2[C@H](O)c1cc(-c2ccc(F)cc2)nc2ccc(O)cc12

>  <Measured target>
Protein kinase 7 (PK7), Plasmodium falciparum 3D7 (PF3D7_0213400)

>  <outcome>
inactive

$$$$

Kindly consider the entry below.
input: Need outcome, item CN1CC=C(c2c[nH]c3ccc(Sc4ccccc4)cc23)CC1
output: inactive
